# Tested on: murine 4T1 mammary tumor cells
# test-summary: Cell viability of 4T1 cells, MTT
# Assay type: cell-based
# measurement-context: Mus musculus; 4T1, MTT, 48 h; log of IC50 in μM; read-out: Mean LogIC50 (±SEM) (converted)
measurement-kind: IC50 (µM)
Give your result in µM as a bare value.

-- ask Give the observed IC50 of CC(=O)N[C@H]1CC[C@]2(C)[C@H]3CC[C@]4(C)[C@@H]([C@H](C)CCCC(C)C)CC[C@H]4[C@@H]3C[C@@H](NCCc3c[nH]cn3)[C@@]2(O)C1 for murine 4T1 mammary tumor cells.
-- reply 11.7

----------
# test-summary: Pharmacokinetics and bioavailability, oral and I.V., in rats (Example 28)
# Assay type: in vivo
# measurement-context: plasma; rat, po 50 mg/kg versus iv 5 mg/kg; read-out: F %
measurement-kind: bioavailability (%)
Give your result in % as a bare value.

-- ask Provide measured bioavailability value, entry: CC(C)CCC[C@@H](C)[C@H]1CC[C@H]2[C@@H]3C[C@@H](NCCc4c[nH]cn4)[C@@]4(O)C[C@@H](O)CC[C@]4(C)[C@H]3CC[C@]12C [DX101, reference compound]
-- reply 3

----------
Documented Mean LogIC50 (±SEM) across a set of compounds
# Test system: BT-474 human mammary tumor cells
# test-summary: Cell viability of BT-474 cells, MTT
# Type: cell-based
# measurement-context: BT-474, MTT, 48 h; log of IC50 in μM
No unit in the answer, only the number.

CCO[C@H]1CC[C@]2(C)[C@H]3CC[C@]4(C)[C@@H]([C@H](C)CCCC(C)C)CC[C@H]4[C@@H]3C[C@@H](NCCc3c[nH]cn3)[C@@]2(O)C1 ... 0.86
CC(C)CCC[C@@H](C)[C@H]1CC[C@H]2[C@@H]3C[C@@H](NCCc4c[nH]cn4)[C@@]4(O)C[C@@H](F)CC[C@]4(C)[C@H]3CC[C@]12C ... 0.95
CO[C@H]1CC[C@]2(C)[C@H]3CC[C@]4(C)[C@@H]([C@H](C)CCCC(C)C)CC[C@H]4[C@@H]3C[C@@H](NCCc3c[nH]cn3)[C@@]2(O)C1 ... 0.85

-- ask Provide measured Mean LogIC50 (±SEM) value, entry: CC(C)CCC[C@@H](C)[C@H]1CC[C@H]2[C@@H]3C[C@@H](NCCc4c[nH]cn4)[C@@]4(O)C[C@@H](O)CC[C@]4(C)[C@H]3CC[C@]12C [DX101, reference compound]
-- reply 0.88

----------
Documented Max concentration across a set of compounds
# test-summary: Oral pharmacokinetic study in rat, LC/MS assay in plasma (Examples 21-24)
# Assay type: in vivo
# measurement-context: in vivo, po, 50 mg/kg
Could you write the number and then its unit?

CCO[C@H]1CC[C@]2(C)[C@H]3CC[C@]4(C)[C@@H]([C@H](C)CCCC(C)C)CC[C@H]4[C@@H]3C[C@@H](NCCc3c[nH]cn3)[C@@]2(O)C1 ... 197 nM
CO[C@H]1CC[C@]2(C)[C@H]3CC[C@]4(C)[C@@H]([C@H](C)CCCC(C)C)CC[C@H]4[C@@H]3C[C@@H](NCCc3c[nH]cn3)[C@@]2(O)C1 ... 135 nM
CC(C)CCC[C@@H](C)[C@H]1CC[C@H]2[C@@H]3C[C@@H](NCCc4c[nH]cn4)[C@@]4(O)C[C@@H](F)CC[C@]4(C)[C@H]3CC[C@]12C ... 515 nM

Kindly consider the entry below.
-- ask Provide measured Max concentration value, entry: CC(C)CCC[C@@H](C)[C@H]1CC[C@H]2[C@@H]3C[C@@H](NCCc4c[nH]cn4)[C@@]4(O)C[C@@H](N=[N+]=[N-])CC[C@]4(C)[C@H]3CC[C@]12C
-- reply 721 nM

----------
# test-summary: Oral pharmacokinetic study in rat, LC/MS assay in plasma (Examples 21-24)
# Type: in vivo
# measurement-context: in vivo, po, 50 mg/kg
Documented Area under the curve across a set of compounds
No unit in the answer, only the number.

The examples below pair each entry with its known result.
CCO[C@H]1CC[C@]2(C)[C@H]3CC[C@]4(C)[C@@H]([C@H](C)CCCC(C)C)CC[C@H]4[C@@H]3C[C@@H](NCCc3c[nH]cn3)[C@@]2(O)C1 ... 145590
CC(C)CCC[C@@H](C)[C@H]1CC[C@H]2[C@@H]3C[C@@H](NCCc4c[nH]cn4)[C@@]4(O)C[C@@H](F)CC[C@]4(C)[C@H]3CC[C@]12C ... 368921
CO[C@H]1CC[C@]2(C)[C@H]3CC[C@]4(C)[C@@H]([C@H](C)CCCC(C)C)CC[C@H]4[C@@H]3C[C@@H](NCCc3c[nH]cn3)[C@@]2(O)C1 ... 105351

Kindly consider the entry below.
-- ask Provide measured Area under the curve value, entry: CC(C)CCC[C@@H](C)[C@H]1CC[C@H]2[C@@H]3C[C@@H](NCCc4c[nH]cn4)[C@@]4(O)C[C@@H](N=[N+]=[N-])CC[C@]4(C)[C@H]3CC[C@]12C
-- reply 6711

----------
# System: murine 4T1 mammary tumor cells
# test-summary: Cell viability of 4T1 cells, LDH
# Assay type: cell-based
# measurement-context: Mus musculus; 4T1, LDH, 48 h; log of IC50 in μM; read-out: Mean LogIC50 (±SEM) (converted)
Documented IC50 across a set of compounds

The examples below pair each entry with its known result.
CC(C)CCC[C@@H](C)[C@H]1CC[C@H]2[C@@H]3C[C@@H](NCCc4c[nH]cn4)[C@@]4(O)C[C@@H](S(C)(=O)=O)CC[C@]4(C)[C@H]3CC[C@]12C [DX129] ... 3.89 µM
CC(C)CCC[C@@H](C)[C@H]1CC[C@H]2[C@@H]3C[C@@H](NCCc4c[nH]cn4)[C@@]4(O)C[C@@H](N)CC[C@]4(C)[C@H]3CC[C@]12C [DX125] ... 36.3 µM

Kindly consider the entry below.
-- ask Provide measured IC50 value, entry: CC(C)CCC[C@@H](C)[C@H]1CC[C@H]2[C@@H]3C[C@@H](NCCc4c[nH]cn4)[C@@]4(O)C[C@@H](F)CC[C@]4(C)[C@H]3CC[C@]12C [DX111]
-- reply 1.86 µM

----------
Documented IC50 across a set of molecules
# Tested on: murine 4T1 mammary tumor cells
# test-summary: Cell viability of 4T1 cells, CellTox Green Cytotoxicity Assay
# Format: cell-based
# measurement-context: Mus musculus; 4T1, Green Cytotoxicity Assay, 48 h; read-out: IC50

The examples below pair each entry with its known result.
CC(C)CCC[C@@H](C)[C@H]1CC[C@H]2[C@@H]3C[C@@H](NCCc4c[nH]cn4)[C@@]4(O)C[C@@H](N=[N+]=[N-])CC[C@]4(C)[C@H]3CC[C@]12C [DX123] ... > 10 µM
CCCCCCCCO[C@H]1CC[C@]2(C)[C@H]3CC[C@]4(C)[C@@H]([C@H](C)CCCC(C)C)CC[C@H]4[C@@H]3C[C@@H](NCCc3c[nH]cn3)[C@@]2(O)C1 [DX115] ... > 10 µM

Kindly consider the entry below.
-- ask Provide measured IC50 value, entry: CC(C)CCC[C@@H](C)[C@H]1CC[C@H]2[C@@H]3C[C@@H](NCCc4c[nH]cn4)[C@@]4(O)C[C@@H](N)CC[C@]4(C)[C@H]3CC[C@]12C [DX125]
-- reply > 10 µM

----------
Documented IC50 across a set of compounds
# Tested on: murine 4T1 mammary tumor cells
# test-summary: Cell viability of 4T1 cells, MTT
# Assay type: cell-based
# measurement-context: Mus musculus; 4T1, MTT, 48 h; log of IC50 in μM; read-out: Mean LogIC50 (±SEM) (converted)
Give your result in µM as a bare value.

The examples below pair each entry with its known result.
CC(C)CCC[C@@H](C)[C@H]1CC[C@H]2[C@@H]3C[C@@H](NCCc4c[nH]cn4)[C@@]4(O)C[C@@H](S(C)(=O)=O)CC[C@]4(C)[C@H]3CC[C@]12C [DX129] ... 15.1
CC(C)CCC[C@@H](C)[C@H]1CC[C@H]2[C@@H]3C[C@@H](NCCc4c[nH]cn4)[C@@]4(O)C[C@@H](N=[N+]=[N-])CC[C@]4(C)[C@H]3CC[C@]12C [DX123] ... 5.89
CCCCCCCCO[C@H]1CC[C@]2(C)[C@H]3CC[C@]4(C)[C@@H]([C@H](C)CCCC(C)C)CC[C@H]4[C@@H]3C[C@@H](NCCc3c[nH]cn3)[C@@]2(O)C1 [DX115] ... 37.2

-- ask Provide measured IC50 value, entry: CC(C)CCC[C@@H](C)[C@H]1CC[C@H]2[C@@H]3C[C@@H](NCCc4c[nH]cn4)[C@@]4(O)C[C@@H](O)CC[C@]4(C)[C@H]3CC[C@]12C [DX101, reference compound]
-- reply 4.37
